Collected from the literature: IC50 of various compounds toward PIK3CA (human) (UniProt P42336).

Ask | Looking for the measured IC50 of `CN1CCN(C(=O)Cn2ncc3c(-c4cnc(N)nc4)nc(N4CCOCC4)nc32)CC1` , can you help?
Reply | 100 to 10000 nM

Ask | Follow-up item: `C[C@H](NC(=O)c1nc(-c2cscn2)cnc1N)c1cc2cccc(Cl)c2c(=O)n1-c1ccccc1`
Reply | 1000 to 10000 nM

Ask | Follow-up item: `Cc1nc(NC(=O)N2CC[C@@H](C)[C@H]2C(N)=O)sc1-c1ccnc(C(C)(C)F)n1`
Reply | 10 nM

Ask | Follow-up item: `CCN(CC)c1ncc2c(n1)-c1sc(NC(=O)N3C[C@@H](F)C[C@H]3C(N)=O)nc1CC2`
Reply | 8 nM

Ask | Follow-up item: `Cn1cc(/C=C2\Oc3cccc(O)c3C2=O)c2c(-c3ccc(N4CCCCC4)nc3)ccnc21`
Reply | 271 nM

Ask | Follow-up item: `O=c1cc(Oc2ccc(C(F)(F)F)cc2)c2ccccc2[nH]1`
Reply | 2310 nM

Ask | Follow-up item: `COc1cc(-c2cccc3cc([C@H](C)NC(=O)c4c(N)ncc5cccnc45)n(-c4ccccc4)c(=O)c23)ccn1`
Reply | 1000 to 10000 nM

Ask | Follow-up item: `CN(C)[C@H]1CC[C@H](Nc2nc(N3CCOCC3)nc(-n3c(C(F)F)nc4ccccc43)n2)CC1`
Reply | 2000 nM

Ask | Follow-up item: `C[C@H](Nc1ncnc2[nH]cnc12)c1cc2cccc(-c3cnn(C)c3)c2c(OCCN2CCCC2)n1`
Reply | > 10000 nM

Ask | Follow-up item: `Nc1ncc(-c2nc(N3CCOCC3)c3ncc(-c4cccc(NC(=O)C5CC5)c4F)cc3n2)cn1`
Reply | < 50 nM

Ask | Follow-up item: `CN(C)[C@H]1CCN(c2cnc3ccc(-c4ccc5oc(N)nc5c4)cc3n2)C1`
Reply | < 100 nM

Ask | Follow-up item: `Nc1ncc(-c2ccc3ncc4nnn(C5CCN(CCO)CC5)c4c3n2)cc1C(F)(F)F`
Reply | < 100 nM

Ask | Follow-up item: `Cc1nc2ccc(-c3ccc4c(c3)CN(C(=O)N3CCN(c5ccccn5)CC3)CCO4)cc2[nH]1`
Reply | 200 to 500 nM

Ask | Follow-up item: `COc1ccccc1-n1c(Cn2nc(I)c3c(N)ncnc32)cc2cccc(C)c2c1=O`
Reply | > 10000 nM

Ask | Follow-up item: `O=c1cc(Oc2ccccc2)c2cc(-c3ccncc3)ccc2[nH]1`
Reply | 3940 nM

Ask | Follow-up item: `Cc1ccccc1-n1c(Cn2nc(-c3ccc(Cl)c(O)c3)c3c(N)ncnc32)cc2cccc(C)c2c1=O`
Reply | > 10000 nM

* * *

pIC50: −log10 of the molar value.
Collected from the literature: pIC50 of various compounds toward UniProt:P42336.

Ask | Looking for the measured pIC50 of `C[C@@H]1CN(C2CN(C(=O)c3cnc4ccc(-c5ccc6oc(N)nc6c5)cn34)C2)CCN1C` , can you help?
Reply | > 7.00

Ask | Follow-up item: `COC(=O)N[C@@H]1CCN([C@H]2CC[C@H](Nc3cc(-n4c(C(F)F)nc5ccccc54)nc(N4CCOCC4)n3)CC2)C1=O`
Reply | 5.30

Ask | Follow-up item: `C[C@H](NC(=O)c1nc(-c2cn[nH]c2)cnc1N)c1cc2cccc(Cl)c2c(=O)n1-c1ccccc1`
Reply | 5.00 to 6.00

Ask | Follow-up item: `Cc1nccc(N2CCOc3ccc(-c4cnc5nc(C)[nH]c5c4)cc3C2)n1`
Reply | 5.70 to 6.00

* * *

Collected from the literature: pIC50 of various compounds toward UniProt P42336.
Please express pIC50 as -log10 of the molar concentration.

Ask | // map `Cn1cc(/C=C2\Oc3cccc(O)c3C2=O)c2c(-c3ccc(N4CCCCC4)cc3)ccnc21` to recorded pIC50 (system: UniProt P42336)
Reply | 5.80

Ask | Follow-up item: `C[C@H](Nc1ccc2c(c1F)OCCn1cc(N3C(=O)SC[C@H]3C(F)F)nc1-2)C(N)=O`
Reply | 8.62

Ask | Follow-up item: `COC[C@@H]1CCN(C(=O)Nc2nc3c(s2)-c2nc(C(C)(C)C)ncc2CC3)[C@@H]1C(N)=O`
Reply | 8.10

Ask | Follow-up item: `CN1CCN(c2ccc(NC(=O)Nc3ccc4c(c3)C(=O)/C(=C/c3cn(C)c5nccc(N6CC7CCC(C6)O7)c35)O4)cn2)CC1`
Reply | 6.15

* * *

Collected from the literature: IC50 of various compounds toward UniProt:P42336.

Ask | Looking for the measured IC50 of `CN1CCN(CCc2nnc3ccc(-c4ccc5nc(N)oc5c4)cn23)CC1` , can you help?
Reply | > 10 µM

Ask | Follow-up item: `COc1ncc(-c2cc(OC3CCC(F)(F)CC3)c3nc(N)nc(C)c3c2)cc1NS(=O)(=O)c1ccc(F)cc1F`
Reply | 0.0023 µM

Ask | Follow-up item: `CN(C)CC(=O)Nc1cccc(-c2cnc3c(N4CCOCC4)nc(-c4cnc(N)nc4)nc3c2)c1`
Reply | < 0.05 µM

Ask | Follow-up item: `Nc1ncc(-c2nc(N3CCOCC3)c3ncc(-c4cccc(NC(=O)C56CC7CC(CC(C7)C5)C6)c4)cc3n2)cn1`
Reply | < 0.05 µM

Ask | Follow-up item: `Cc1cccc2cc(Cn3nc(C#CCO)c4c(N)ncnc43)n(-c3ccccc3F)c(=O)c12`
Reply | > 10 µM

Ask | Follow-up item: `Nc1ncc(-c2nc(N3CCOCC3)c3nc(NCCO)n(CC4CC4)c3n2)cn1`
Reply | 0.01 to 0.02 µM

Ask | Follow-up item: `C[C@H](NC(=O)c1c(N)ncc2cccnc12)c1cc2cccc(N3CCOCC3)c2c(=O)n1-c1ccccc1`
Reply | > 10 µM

Ask | Follow-up item: `Cc1cccc2cc(Cn3nc(-c4ccc5oc(N)nc5c4)c4c(N)ncnc43)n(-c3ccccc3)c(=O)c12`
Reply | < 10 µM

Ask | Follow-up item: `COc1cc2nc(-c3cnc(N)nc3)nc(N3CCOCC3)c2cc1-c1cccc(NS(=O)(=O)CCCF)c1F`
Reply | 0.1 to 1 µM

Ask | Follow-up item: `CN1CCN(c2nc3c(N4CCOCC4)nc(-c4cnc(N)nc4)nc3n2CC(F)(F)F)CC1`
Reply | < 0.01 µM

Ask | Follow-up item: `C[C@H](O)CC(=O)N1CCN(c2nc3c(N4CCOCC4)nc(-c4cnc(N)nc4)nc3n2CC(F)(F)F)CC1`
Reply | < 0.01 µM

Ask | Follow-up item: `COc1ccc(Nc2nc(-c3ccccc3)nc3c2cnn3C2CCN(Cc3ccccc3)CC2)cc1OC`
Reply | > 10 µM

Ask | Follow-up item: `C=C(CC/C=C(\C)CCC=C(C)C)c1cc2cc(OC)c(OC)cc2o1`
Reply | 0.14 µM

Ask | Follow-up item: `Cc1ccccc1-n1c(Cn2nc(-c3ccc(F)c(O)c3)c3c(N)ncnc32)cc2cccc(C)c2c1=O`
Reply | > 10 µM

Ask | Follow-up item: `NS(=O)(=O)c1cncc(-c2ccc3ncnc(N4CCCCC4)c3c2)c1`
Reply | 0.04 µM

Ask | Follow-up item: `Nc1nc2cc(-c3cn4c(C(=O)N5CCOCC5)cnc4cn3)ccc2o1`
Reply | > 10 µM

* * *

Collected from the literature: pIC50 of various compounds toward PIK3CA (human).
pIC50: −log10 of the molar value.

Ask | Looking for the measured pIC50 of `CC(C)(C)N1CCN(c2cnc3ccc(-c4ccc5oc(N)nc5c4)cc3n2)CC1` , can you help?
Reply | > 7.00

Ask | Follow-up item: `Nc1ncc(-c2nc(N3CCOCC3)c3ncc(-c4ccc(C(=O)Nc5ccncc5)cc4)cc3n2)cn1`
Reply | > 7.30

Ask | Follow-up item: `CCN1CCN(c2cnc3ccc(-c4ccc5oc(N)nc5c4)cc3n2)CC1`
Reply | > 7.00

Ask | Follow-up item: `CC(=O)N1CCN(c2nc3c(N4CCOC[C@@H]4C)nc(-c4cnc(N)nc4)nc3n2CC(C)C)CC1`
Reply | 7.70 to 8.00

Ask | Follow-up item: `Cc1cccc2cc(Cn3nc(C#C[C@@H](C)O)c4c(N)ncnc43)n(-c3ccccc3C(C)C)c(=O)c12`
Reply | < 5.00

Ask | Follow-up item: `Cc1cccc2cc(Cn3nc(-c4cn[nH]c4)c4c(N)ncnc43)n(-c3cccc(F)c3)c(=O)c12`
Reply | < 5.00

Ask | Follow-up item: `C[C@H](NC(=O)c1nccnc1N)c1nc2cccc(Cl)c2c(=O)n1-c1ccccc1`
Reply | < 5.00

Ask | Follow-up item: `O=c1cc(Oc2cccc(-c3ccncc3)c2)c2ccccc2[nH]1`
Reply | < 5.00
